- Tgt: T1, His-HER3 (UniProt P21860 20-643, limits assumed)
- T1 construct: Analyte of the Biacore assay; not shown: His tag
- Protocol Notes: SPR, Biacore T200, antibody captured on protein A chip, His-HER3 as analyte
binders and their reported koff
Reply numerically in s⁻¹, unit not repeated.

Examples with their reported koff follow.
humanized 3F8 antibody hu3F8-1 (antibody, human IgG1, kappa, V domains shown, also called Clone 1; clone-1) VH: QVQLQESGPGLVKPSETLSLTCTVSGYSITSAYYWNWIRQPPGKGLEWIGYISYDGRNNFNPSLKNRVTISVDTSKNQFSLKLSSVTAADTAVYYCARDGDYDYFDYWGQGTTVTVSS VL: DIQMTQSPSSLSASVGDRVTITCRASQDISNYLNWYQQKPGKAPKLLIYYTSILHSGVPSRFSGSGSGTDYTFTISSLQPEDIATYFCQQGDTLPPTFGGGTKLEIKR; 0.000612
chimeric 3F8 antibody (antibody, human IgG1, V domains shown, also called ch3F8; Chimeric antibody) VH: DVQLQESGPGLVKPSQSLSLTCSVTGYSITSAYYWNWIRQFPGDKLEWMGYISYDGRNNFNPSLKNRISITRDTSKNQFFLKLNSVTSGDTATYYCARDGDYDYFDYWGQGTTLTVSS VL: DIQMTQTTSSLSASLGDRVTISCRASQDISNYLNWYQQKPDGTFKLLIYYTSILHSGVPSRFSGSGSGTDYSLTISNLEQEDIATYFCQQGDTLPPTFGAGTKLELK; 0.000391
humanized 3F8 antibody hu3F8-2 (antibody, human IgG1, kappa, V domains shown, also called Clone 2; clone-2) VH: QVQLQESGPGLVKPSETLSLTCTVSGYSITSAYYWNWIRQPFGKGLEWMGYISYDGRNNFNPSLKNRVTISRDTSKNQFSLKLSSVTAADTAVYYCARDGDYDYFDYWGQGTTVTVSS VL: DIQMTQSPSSLSASVGDRVTITCRASQDISNYLNWYQQKPGKAPKLLIYYTSILHSGVPSRFSGSGSGTDYTFTISSLQPEDIATYFCQQGDTLPPTFGGGTKLEIKR; 0.000328

# next binder below
Name the recorded koff for humanized 3F8 antibody hu3F8-3 (antibody, human IgG1, kappa, V domains shown, also called Clone 3; clone-3) VH: QVQLQESGPGLVKPSETLSLTCTVSGYSITSAYYWNWIRQPFGKGLEWMGYISYDGRNNFNPSLKNRVSISRDTSKNQFSLKLSSVTAADTATYYCARDGDYDYFDYWGQGTTVTVSS VL: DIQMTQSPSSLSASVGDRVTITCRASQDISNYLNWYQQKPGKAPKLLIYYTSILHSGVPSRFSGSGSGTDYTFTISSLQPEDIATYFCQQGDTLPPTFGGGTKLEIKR . 0.000348

The values you see were collected from patent US20250295802A1.
